- Tested on: D-VEGF
- EXPERIMENT: SPR affinity measurements of GB1 peptidic compounds on immobilized D-VEGF
- Type: binding
- TEST_SETTINGS: Table 2; GB1-E01 double mutants; target D-VEGF
Each entry below lists one item and its recorded Koff value.
Lab book: enter the figure in s⁻¹, no units written.

Please review the entries below; each comes with its answer.
MOLECULE: E01-D39F/F40I: E01 double mutant D39F/F40I (protein) MKIEEHHHHHHHHHHGGSTYKLILNGKTLKGETTTEAVDVYDAFDVFFVYAASNFSFIDDWTYDDATKTFTVTEGGSDK
Koff (s⁻¹): 0.00138
--
MOLECULE: E01-D39F/S35G: E01 double mutant D39F/S35G (protein) MKIEEHHHHHHHHHHGGSTYKLILNGKTLKGETTTEAVDVYDAFDVFFVYAAGNFSFFDDWTYDDATKTFTVTEGGSDK
Koff (s⁻¹): 0.00193
--
MOLECULE: E01-D39F/S38G: E01 double mutant D39F/S38G (protein) MKIEEHHHHHHHHHHGGSTYKLILNGKTLKGETTTEAVDVYDAFDVFFVYAASNFGFFDDWTYDDATKTFTVTEGGSDK
Koff (s⁻¹): 0.00131

Lookup result for E01-D39F/S35R: E01 double mutant D39F/S35R (protein) MKIEEHHHHHHHHHHGGSTYKLILNGKTLKGETTTEAVDVYDAFDVFFVYAARNFSFFDDWTYDDATKTFTVTEGGSDK ; measured Koff: 0.00183

Entry source: patent US20120178682A1
